Tested on: phosphorylated myosin regulatory light chain in neutrophils
Assay: Action on amount of phosphorylated myosin regulatory light chain in the cells (Test Example 1)
Type: cell-based
Details: Neutrophil, 5 min; human neutrophils, reaction at 25° C. for 5 minutes; read-out: concentration at which the phosphorylation of myosin regulatory light chain is inhibited (IC50)
Method: A volume of 50 to 100 ml of peripheral blood collected from healthy volunteers was centrifuged by using Mono-Poly separator solution (Dainippon Pharmaceutical) to prepare a neutrophil containing fraction. The neutrophils were washed with PBS(−) and resuspended in Hanks' Balanced Salt Solution (HBSS+, Gibco) to prepare a cell suspension (8×10^6/ml). […]
pIC50: −log10 of the molar value.
readout_kind: pIC50

>>> print(df.to_string())
                                   compound  recorded_value
0  CC(=O)NCCN1CCC(N2CCc3cncc4cccc2c34)CC1 [Example 42]          ≥ 4.40
1  FC1CNCCC1N1CCc2cncc3cccc1c23 (stereo not shown) [Example 54]          ≥ 4.40
2  O=C1CCN1CCN1CCC(N2CCc3cncc4cccc2c34)CC1 [Example 60]          ≥ 4.40

Lookup result for CN(C)[C@H]1CC[C@H](N2CCc3cncc4cccc2c34)CC1 [Example 53] ; measured pIC50: ≥ 4.40

Lookup result for Clc1ncc2c3c(cccc13)N(C1CCNCC1)CC2 [Example 61] ; measured pIC50: ≥ 4.40

Lookup result for CC(=O)N(C)CCN1CCC(N2CCc3cncc4cccc2c34)CC1 [Example 59] ; measured pIC50: ≥ 4.40

Lookup result for `c1ccc(CN[C@H]2CC[C@H](N3CCc4cncc5cccc3c45)CC2)cc1` ; measured pIC50: ≥ 4.40
